assay: M. tuberculosis growth inhibition, HTS (AID 449762);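 also: bacterial growth assessed after seven days of incubation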; conditions: M. tuberculosis H37Rv growth inhibition, 7H9 media; at 25 µM; active compounds read high
About 1,900 (0.58%) of roughly 330,000 compounds were called active. About 4% were inconclusive and are not listed. Only a sample is shown. Results with a measured potency or affinity are listed apart.
Please go through the items and note down their inhibition.

Any idea what inhibition was measured for O=C(NNC(=O)C12CC3CC(CC(C3)C1)C2)c1cnccn1 ?
-6.86% (inactive)

Any idea what inhibition was measured for Cc1c(O)cc2n(c1=O)-c1ccc(Cl)cc1C2(C)C ?
-11.1% (inactive)

Any idea what inhibition was measured for COC(=O)C1=C(c2ccc(OCc3ccccc3)cc2)C[C@@H]2CC[C@H]1N2C(=O)NCCCc1ccccc1 ?
-6.15% (inactive)

Any idea what inhibition was measured for O=C(NNC(=O)C12CC3CC(CC(C3)C1)C2)c1ccncc1 ?
2.26% (inactive)

Any idea what inhibition was measured for CCOc1ccccc1NC(=O)C1CCCN(c2c(CC)c(C)nc3ncnn23)C1 (stereo unspecified) ?
3.2% (inactive)

Any idea what inhibition was measured for CCN(CC)C(=O)c1ccccc1NS(C)(=O)=O ?
-4.74% (inactive)

Values compiled from PubChem BioAssay AID449762.
